Listed below: inhibition at 1 µM values for each entry.
target.or.system: VEGFR-3 (Homo sapiens, UniProt P35916)
Construct: purchased Millipore UK Ltd., Dundee, UK (now Eurofins Scientific); KinaseProfiler / IC50 Profiler service
Sequence (P35916 25-1363): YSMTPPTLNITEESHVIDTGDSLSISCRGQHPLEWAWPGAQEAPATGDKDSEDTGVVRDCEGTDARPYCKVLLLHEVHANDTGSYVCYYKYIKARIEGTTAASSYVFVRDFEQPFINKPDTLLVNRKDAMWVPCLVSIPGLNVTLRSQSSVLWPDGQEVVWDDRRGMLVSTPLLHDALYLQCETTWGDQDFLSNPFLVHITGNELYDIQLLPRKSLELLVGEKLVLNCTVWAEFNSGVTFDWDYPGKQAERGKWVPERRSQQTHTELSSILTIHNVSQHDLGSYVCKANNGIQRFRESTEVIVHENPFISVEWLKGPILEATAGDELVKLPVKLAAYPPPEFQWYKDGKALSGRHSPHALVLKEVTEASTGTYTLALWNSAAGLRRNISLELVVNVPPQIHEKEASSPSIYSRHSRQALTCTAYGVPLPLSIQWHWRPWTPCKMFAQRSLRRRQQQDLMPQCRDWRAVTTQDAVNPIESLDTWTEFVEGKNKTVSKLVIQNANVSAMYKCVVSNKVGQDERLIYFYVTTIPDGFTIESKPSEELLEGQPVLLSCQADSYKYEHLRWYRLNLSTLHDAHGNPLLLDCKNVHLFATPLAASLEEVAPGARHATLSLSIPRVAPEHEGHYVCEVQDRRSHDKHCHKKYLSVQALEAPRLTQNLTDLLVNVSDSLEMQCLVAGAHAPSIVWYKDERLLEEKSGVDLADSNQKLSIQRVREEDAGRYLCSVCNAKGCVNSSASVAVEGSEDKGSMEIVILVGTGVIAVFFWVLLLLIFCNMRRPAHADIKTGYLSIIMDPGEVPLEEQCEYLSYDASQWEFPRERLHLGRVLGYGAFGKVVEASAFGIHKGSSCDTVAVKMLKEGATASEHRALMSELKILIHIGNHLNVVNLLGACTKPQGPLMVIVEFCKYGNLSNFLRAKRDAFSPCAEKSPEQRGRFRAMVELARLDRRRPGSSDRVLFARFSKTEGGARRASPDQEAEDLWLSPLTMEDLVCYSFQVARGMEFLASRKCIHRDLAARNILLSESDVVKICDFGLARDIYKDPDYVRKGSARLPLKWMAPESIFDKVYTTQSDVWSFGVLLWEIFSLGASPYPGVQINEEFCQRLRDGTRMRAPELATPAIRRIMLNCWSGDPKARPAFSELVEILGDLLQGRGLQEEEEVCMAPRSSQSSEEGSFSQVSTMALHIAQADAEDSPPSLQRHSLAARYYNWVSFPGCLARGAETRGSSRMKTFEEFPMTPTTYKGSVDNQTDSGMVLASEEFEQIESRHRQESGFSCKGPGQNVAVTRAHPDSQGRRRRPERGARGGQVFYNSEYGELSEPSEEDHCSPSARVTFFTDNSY
test.method.notes: In vitro kinase assay, VEGFR-3
Format: biochemical
experimental.context: 1 μM, mean ± S.D.; read-out: % inhibition at 1 μM, VEGFR-3 (h)
Write the answer as a number in %, unit excluded.

The compound identified as COc1ccc(Nc2cc(Oc3ccc4[nH]ccc4c3)ncn2)cc1N1CCOCC1 [MKP121] registered its inhibition at 1 µM at 98

The compound identified as Cc1ccc(Nc2nccc(Oc3ccc4[nH]ccc4c3)n2)cc1S(N)(=O)=O [MKP122] registered its inhibition at 1 µM at 100

The compound identified as Cc1ccc(Nc2nccc(N(C)c3ccc4[nH]ccc4c3)n2)cc1S(N)(=O)=O [MKP101] registered its inhibition at 1 µM at 98

The compound identified as Cc1ccc(Nc2cc(Oc3ccc4[nH]ccc4c3)ncn2)cc1S(N)(=O)=O [MKP123] registered its inhibition at 1 µM at 100
